FYI, the data here is from the supplement of paper PMC9233669.

tested on: biotinyl-Trp-oxazolone; assay: self-aminoacylation, catalytic enhancement (BWO) (fold over background); higher = more active; k-Seq, kA / k0A0; sequences stand for … in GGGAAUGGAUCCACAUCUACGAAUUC…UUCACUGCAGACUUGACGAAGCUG
Variants at the floor of the assay were thinned out.
Given measured self-aminoacylation, output fulfilled if it is greater than or equal to 1 and not fulfilled if not.

Solved entries (count: 3):
Request: Reported self-aminoacylation reaches at least 1 for AUAACCCUGGUCAGCGAGUGA [Fam2.1 aminoacylation ribozyme variant] ?
Response: fulfilled

Request: Reported self-aminoacylation reaches at least 1 for AAGUUUCCUAAUAGUAGCAAG [Fam3.1 aminoacylation ribozyme variant] ?
Response: not fulfilled

Request: Reported self-aminoacylation reaches at least 1 for AUUACCCUGGUCAUCAAGGGA [Fam2.1 aminoacylation ribozyme variant] ?
Response: fulfilled

Turning now to a further sequence:
Request: Reported self-aminoacylation reaches at least 1 for AUUCUUCAAACAAUCGGUCUG [Fam1A.1 aminoacylation ribozyme variant] ?
Response: fulfilled

----------
tested on: biotinyl-Trp-oxazolone; experiment: self-aminoacylation, catalytic enhancement (BWO) (fold over background); higher = more active; k-Seq, kA / k0A0; sequences stand for … in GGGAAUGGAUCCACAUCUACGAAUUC…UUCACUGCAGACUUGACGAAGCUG
Variants at the floor of the assay were thinned out.
readout name: self-aminoacylation
Number, no unit, nothing else.

Noted for GAGUUUGCUAAUAGUCGCAAA [Fam3.1 aminoacylation ribozyme variant] : its self-aminoacylation reads 1.59

Noted for AAUUGUGCUAAUAGUCGCAAG [Fam3.1 aminoacylation ribozyme variant] : its self-aminoacylation reads 2.44

Noted for AUUACCUUGGUCAUCGAGAGA [Fam2.1 aminoacylation ribozyme variant] : its self-aminoacylation reads 0.946

Noted for AUUACCAUGGUCAUCGAGUGG [Fam2.1 aminoacylation ribozyme variant] : its self-aminoacylation reads 2.18

Noted for CCACACUUCAAGCAACCGGUG [Fam1B.1 aminoacylation ribozyme variant] : its self-aminoacylation reads 6.05

Shifting focus to the sequence that follows.
Noted for CCACACUUCAUGCAAACGGUC [Fam1B.1 aminoacylation ribozyme variant] : its self-aminoacylation reads 0.512

----------
system: biotinyl-Trp-oxazolone; assay: self-aminoacylation, catalytic enhancement (BWO) (fold over background); higher = more active; k-Seq, kA / k0A0; sequences stand for … in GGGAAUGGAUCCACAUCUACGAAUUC…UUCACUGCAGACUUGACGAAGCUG
Variants at the floor of the assay were thinned out.
Measured self-aminoacylation values are reported for all entries that follow.
Number, no unit, nothing else.

Example entries and their recorded answers appear below.
Noted for CCACUCUUCAAGAAAUCGGUC [Fam1B.1 aminoacylation ribozyme variant] : its self-aminoacylation reads 4.87

Noted for AAGUCUGCUUAUAGUCGCAAG [Fam3.1 aminoacylation ribozyme variant] : its self-aminoacylation reads 0.87

Noted for AUUACCCUGGUAAUCGAGUCA [Fam2.1 aminoacylation ribozyme variant] : its self-aminoacylation reads 0.473

Noted for AUUACCGGGGUCAUCGAGUGA [Fam2.1 aminoacylation ribozyme variant] : its self-aminoacylation reads 6.27

Noted for AUUCACCUAGGACAUCGGGUC [Fam2.2 aminoacylation ribozyme variant] : its self-aminoacylation reads 0.858

Noted for AAUCACCUAGCUCAUCGGGUG [Fam2.2 aminoacylation ribozyme variant] : its self-aminoacylation reads 3.68

Continuing:
Noted for AUUCCCCUGGUCAUCGCGUGA [Fam2.1 aminoacylation ribozyme variant] : its self-aminoacylation reads 26.8

Noted for CUACUUCAAAAAAUCGGUCUU [Fam1A.1 aminoacylation ribozyme variant] : its self-aminoacylation reads 4.11

Noted for AUUACCCUGGCCAUCAAGUGA [Fam2.1 aminoacylation ribozyme variant] : its self-aminoacylation reads 1.67

Noted for AUUACCAUGGUCAUCGAGUGC [Fam2.1 aminoacylation ribozyme variant] : its self-aminoacylation reads 1.35

Noted for AUUCACCUAGUUCAUCGAGUG [Fam2.2 aminoacylation ribozyme variant] : its self-aminoacylation reads 1.25

Noted for CCACACUUCAAGAAAUCUGUC [Fam1B.1 aminoacylation ribozyme variant] : its self-aminoacylation reads 0.349

Noted for AUUUACCUAGGUCAUCGGGUG [Fam2.2 aminoacylation ribozyme variant] : its self-aminoacylation reads 26.1

Noted for CUACUCCAAACAAACGGUCUG [Fam1A.1 aminoacylation ribozyme variant] : its self-aminoacylation reads 0.918

Noted for AUUCACCAAGGUGAUCGGGUG [Fam2.2 aminoacylation ribozyme variant] : its self-aminoacylation reads 4.15

Noted for CCACACUUGAAGGAAUCGGUC [Fam1B.1 aminoacylation ribozyme variant] : its self-aminoacylation reads 1.71

Noted for GUACUUCAAACAAUCGGUCUG [Fam1A.1 aminoacylation ribozyme variant] : its self-aminoacylation reads 30.5

Noted for CCACACUUUAAGCAAUGGGUC [Fam1B.1 aminoacylation ribozyme variant] : its self-aminoacylation reads 0.612

----------
tested on: biotinyl-Trp-oxazolone; test: self-aminoacylation, catalytic enhancement (BWO) (fold over background); higher = more active; k-Seq, kA / k0A0; sequences stand for … in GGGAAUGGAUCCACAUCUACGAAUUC…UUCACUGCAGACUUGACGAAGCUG
This sample holds only a part of the variants without activity.
readout name: self-aminoacylation
Number, no unit, nothing else.

Example entries and their recorded answers appear below.
Entry AAGUUUGAGAAUAGUCGCAAG [Fam3.1 aminoacylation ribozyme variant] , biotinyl-Trp-oxazolone data, self-aminoacylation value: 1.59

Entry CCACACAUCAAACAAUCGGUC [Fam1B.1 aminoacylation ribozyme variant] , biotinyl-Trp-oxazolone data, self-aminoacylation value: 1.92

Entry CUACCUCAAACAAACGGUCUG [Fam1A.1 aminoacylation ribozyme variant] , biotinyl-Trp-oxazolone data, self-aminoacylation value: 0.615

Continuing:
Entry AGUACCCUGGUCAUAGAGUGA [Fam2.1 aminoacylation ribozyme variant] , biotinyl-Trp-oxazolone data, self-aminoacylation value: 4.67

----------
Measured self-aminoacylation values are reported for all entries that follow.
test system: biotinyl-Ile-oxazolone; assay: self-aminoacylation, catalytic enhancement (BIO) (fold over background); higher = more active; k-Seq, kA / k0A0; sequences stand for … in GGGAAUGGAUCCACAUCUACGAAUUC…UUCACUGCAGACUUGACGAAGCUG
Fewer inactive variants are shown than the library holds.
Number, no unit, nothing else.

Noted for AUUAUCCUGGUGAUCGAGUGA [Fam2.1 aminoacylation ribozyme variant] : its self-aminoacylation reads 3.55

Noted for CCACACUUCAAGCAAUCCGAC [Fam1B.1 aminoacylation ribozyme variant] : its self-aminoacylation reads 0.612

Noted for CUCCUUCAAACAAUCGGUCUG [Fam1A.1 aminoacylation ribozyme variant] : its self-aminoacylation reads 1.1

Noted for CCACACUUCACGCAAUUGGUC [Fam1B.1 aminoacylation ribozyme variant] : its self-aminoacylation reads 0.951

Shifting focus to the sequence that follows.
Noted for AUUACCCUGGUGAUCAAGUGA [Fam2.1 aminoacylation ribozyme variant] : its self-aminoacylation reads 1.81

----------
system: biotinyl-Met-oxazolone; experiment: self-aminoacylation, catalytic enhancement (BMO) (fold over background); higher = more active; k-Seq, kA / k0A0; sequences stand for … in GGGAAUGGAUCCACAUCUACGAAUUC…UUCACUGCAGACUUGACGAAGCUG
Variants at the floor of the assay were thinned out.
Given measured self-aminoacylation, output 1 (yes) if it is greater than or equal to 2 and 0 (no) if not.

Solved entries (count: 5):
Request: Reported self-aminoacylation reaches at least 2 for AAGUUGGCUAAUAGUCGGAAG [Fam3.1 aminoacylation ribozyme variant] ?
Response: 0 (no)

Request: Reported self-aminoacylation reaches at least 2 for AUACACCUAUGUCAUCGGGUG [Fam2.2 aminoacylation ribozyme variant] ?
Response: 1 (yes)

Request: Reported self-aminoacylation reaches at least 2 for ACGGUUGCUAAUAGUCGCAAG [Fam3.1 aminoacylation ribozyme variant] ?
Response: 0 (no)

Request: Reported self-aminoacylation reaches at least 2 for AUUAACCUGGUCAUCGAAUGA [Fam2.1 aminoacylation ribozyme variant] ?
Response: 0 (no)

Request: Reported self-aminoacylation reaches at least 2 for AUCCAACUAGGUCAUCGGGUG [Fam2.2 aminoacylation ribozyme variant] ?
Response: 1 (yes)

Continuing:
Request: Reported self-aminoacylation reaches at least 2 for CUACUGAAAACAAUCGGUCUG [Fam1A.1 aminoacylation ribozyme variant] ?
Response: 0 (no)

Request: Reported self-aminoacylation reaches at least 2 for AUUCACCUAGAUCAACGGGUG [Fam2.2 aminoacylation ribozyme variant] ?
Response: 1 (yes)

Request: Reported self-aminoacylation reaches at least 2 for AAUCACCUAGGUCAUCGGGUA [Fam2.2 aminoacylation ribozyme variant] ?
Response: 1 (yes)

Request: Reported self-aminoacylation reaches at least 2 for CUACUUCAACCAAUCGGUCCG [Fam1A.1 aminoacylation ribozyme variant] ?
Response: 0 (no)

Request: Reported self-aminoacylation reaches at least 2 for AAGUUUGCUAAUAGCCGCAAA [Fam3.1 aminoacylation ribozyme variant] ?
Response: 0 (no)
